- Test system: HCC-827
- EXPERIMENTAL DETAILS: relative viability (nuclei count vs DMSO), 5 days (fraction); higher = more cells survive
- SETTINGS: first compound 1 µM
ASSAY METRIC: relative viability
Note: the reply should be a number with no unit written.

[
  {
    "COMPOUND": "O=c1cc(N2CCOCC2)oc2c(-c3cccc4c3sc3ccccc34)cccc12 + CS(=O)(=O)N1CCN(Cc2cc3nc(-c4cccc5[nH]ncc45)nc(N4CCOCC4)c3s2)CC1 [Pictilisib] (partner 1 µM)",
    "SUBJECT OF TEST": "HCC-827",
    "relative viability": 0.997
  }
]

Please list relative viability recorded for the compound O=c1cc(N2CCOCC2)oc2c(-c3cccc4c3sc3ccccc34)cccc12 + Cc1nc(Nc2ncc(C(=O)Nc3c(C)cccc3Cl)s2)cc(N2CCN(CCO)CC2)n1 [Dasatinib] (partner 0.075 µM)
0.328

Look up and state reported relative viability for CCN(CC)CCCCNc1ncc2cc(-c3cc(OC)cc(OC)c3)c(NC(=O)NC(C)(C)C)nc2n1 + Cc1cc(Nc2cc(N3CCN(C)CC3)nc(Sc3ccc(NC(=O)C4CC4)cc3)n2)n[nH]1 [Tozasertib] (partner 0.1 µM)
0.396

State its relative viability for this compound: O=c1cc(N2CCOCC2)oc2c(-c3cccc4c3sc3ccccc34)cccc12 + N=C(N)NC(=N)NCCc1ccccc1 [Phenformin] (partner 250 µM)
0.402

Respond only with relative viability recorded for CCN(CC)CCCCNc1ncc2cc(-c3cc(OC)cc(OC)c3)c(NC(=O)NC(C)(C)C)nc2n1 + C[C@@H](Oc1cc(-c2cnn(C3CCNCC3)c2)cnc1N)c1c(Cl)ccc(F)c1Cl [Crizotinib] (partner 1 µM)
0.937

Quote relative viability reported for CCN(CC)CCCCNc1ncc2cc(-c3cc(OC)cc(OC)c3)c(NC(=O)NC(C)(C)C)nc2n1 + C[C@]1(O)C[C@@H](c2nc(-c3ccc4ccc(-c5ccccc5)nc4c3)c3c(N)nccn32)C1 [Linsitinib] (partner 1 µM) please.
0.961

Provide relative viability value for the following compound: O=c1cc(N2CCOCC2)oc2c(-c3cccc4c3sc3ccccc34)cccc12 + O=C(c1cc(Cc2n[nH]c(=O)c3ccccc23)ccc1F)N1CCN(C(=O)C2CC2)CC1 [Olaparib] (partner 8 µM)
0.642

Let me know recorded relative viability for CCN(CC)CCCCNc1ncc2cc(-c3cc(OC)cc(OC)c3)c(NC(=O)NC(C)(C)C)nc2n1 + Cc1nc(NC(=O)N2CCC[C@H]2C(N)=O)sc1-c1ccnc(C(C)(C)C(F)(F)F)c1 [Alpelisib] (partner 2 µM) , thanks.
1.02

----------
- System: NCI-H647
- EXPERIMENTAL DETAILS: relative viability (nuclei count vs DMSO), 5 days (fraction); higher = more cells survive
- SETTINGS: first compound 0.01 µM
ASSAY METRIC: relative viability
Write no unit; give the number alone.

Look up and report relative viability, with NCI-H647 as system, for CCN(CC)CCCCNc1ncc2cc(-c3cc(OC)cc(OC)c3)c(NC(=O)NC(C)(C)C)nc2n1 + CC(=O)c1c(C)c2cnc(Nc3ccc(N4CCNCC4)cn3)nc2n(C2CCCC2)c1=O [Palbociclib] (partner 0.5 µM)
0.309

Give relative viability; test system NCI-H647; compound O=c1cc(N2CCOCC2)oc2c(-c3cccc4c3sc3ccccc34)cccc12 + CC(=O)Nc1cccc(-n2c(=O)n(C3CC3)c(=O)c3c(Nc4ccc(I)cc4F)n(C)c(=O)c(C)c32)c1 [Trametinib] (partner 0.02 µM)
0.503

----------
- System: NCI-H1755
- EXPERIMENTAL DETAILS: relative viability (nuclei count vs DMSO), 5 days (fraction); higher = more cells survive
- SETTINGS: first compound 0.8 µM
// returns False unless relative viability is strictly below 0.8, in which case True

Is relative viability strictly under 0.8 for the entry O=c1cc(-c2cccc3c2Sc2ccccc2S3)oc(N2CCOCC2)c1 + CC(C)C[C@H](NC(=O)[C@H](Cc1ccccc1)NC(=O)c1cnccn1)B(O)O [Bortezomib] (partner 0.002 µM) ?
False

----------
- Test system: HCC-827
- EXPERIMENTAL DETAILS: relative viability (nuclei count vs DMSO), 5 days (fraction); higher = more cells survive
- SETTINGS: first compound 0.3162 µM
Friendly reminder: relative viability below 0.5 is rule met, at or above is rule not met.

Reference set (5 entries):
[
  {
    "MOLECULE": "CCN(CC)CCCCNc1ncc2cc(-c3cc(OC)cc(OC)c3)c(NC(=O)NC(C)(C)C)nc2n1 + Cc1cc(Nc2cc(N3CCN(C)CC3)nc(Sc3ccc(NC(=O)C4CC4)cc3)n2)n[nH]1 [Tozasertib] (partner 0.1 µM)",
    "SUBJECT OF TEST": "HCC-827",
    "LABEL": "rule not met"
  },
  {
    "MOLECULE": "O=c1cc(N2CCOCC2)oc2c(-c3cccc4c3sc3ccccc34)cccc12 + CS(=O)(=O)N1CCN(Cc2cc3nc(-c4cccc5[nH]ncc45)nc(N4CCOCC4)c3s2)CC1 [Pictilisib] (partner 1 µM)",
    "SUBJECT OF TEST": "HCC-827",
    "LABEL": "rule not met"
  },
  {
    "MOLECULE": "O=c1cc(N2CCOCC2)oc2c(-c3cccc4c3sc3ccccc34)cccc12 + NC(=O)Nc1cc(-c2cccc(F)c2)sc1C(=O)N[C@H]1CCCNC1 [AZD7762] (partner 0.2 µM)",
    "SUBJECT OF TEST": "HCC-827",
    "LABEL": "rule met"
  },
  {
    "MOLECULE": "O=c1cc(N2CCOCC2)oc2c(-c3cccc4c3sc3ccccc34)cccc12 + C[C@]1(O)C[C@@H](c2nc(-c3ccc4ccc(-c5ccccc5)nc4c3)c3c(N)nccn32)C1 [Linsitinib] (partner 1 µM)",
    "SUBJECT OF TEST": "HCC-827",
    "LABEL": "rule not met"
  },
  {
    "MOLECULE": "CCN(CC)CCCCNc1ncc2cc(-c3cc(OC)cc(OC)c3)c(NC(=O)NC(C)(C)C)nc2n1 + CS(=O)(=O)CCNCc1ccc(-c2ccc3ncnc(Nc4ccc(OCc5cccc(F)c5)c(Cl)c4)c3c2)o1 [Lapatinib] (partner 2 µM)",
    "SUBJECT OF TEST": "HCC-827",
    "LABEL": "rule met"
  }
]

Confirm or reject: relative viability of O=c1cc(N2CCOCC2)oc2c(-c3cccc4c3sc3ccccc34)cccc12 + CC(=O)c1c(C)c2cnc(Nc3ccc(N4CCNCC4)cn3)nc2n(C2CCCC2)c1=O [Palbociclib] (partner 0.5 µM) lies strictly below 0.5
rule not met

Quick check: relative viability of O=c1cc(N2CCOCC2)oc2c(-c3cccc4c3sc3ccccc34)cccc12 + N=C(N)NC(=N)NCCc1ccccc1 [Phenformin] (partner 250 µM) under 0.5?
rule met

Is the reported relative viability for O=c1cc(N2CCOCC2)oc2c(-c3cccc4c3sc3ccccc34)cccc12 + Nc1nc2[nH]cc(CCc3ccc(C(=O)N[C@@H](CCC(=O)O)C(=O)O)cc3)c2c(=O)[nH]1 [Pemetrexed] (partner 0.2 µM) strictly below 0.5?
rule met

Bench note: check whether CCN(CC)CCCCNc1ncc2cc(-c3cc(OC)cc(OC)c3)c(NC(=O)NC(C)(C)C)nc2n1 + C[C@]1(O)C[C@@H](c2nc(-c3ccc4ccc(-c5ccccc5)nc4c3)c3c(N)nccn32)C1 [Linsitinib] (partner 1 µM) shows relative viability below 0.5
rule not met

----------
- Tested on: NCI-H2342
- EXPERIMENTAL DETAILS: relative viability (nuclei count vs DMSO), 5 days (fraction); higher = more cells survive
- SETTINGS: first compound 0.2 µM
// reported relative viability per item

Some compounds with known relative viability results, for comparison:
[
  {
    "COMPOUND": "COCC1(CO)C(=O)C2CCN1CC2 (centres undefined) [PRIMA-1MET] + NC(=O)Nc1cc(-c2cccc(F)c2)sc1C(=O)N[C@H]1CCCNC1 [AZD7762] (partner 0.2 µM)",
    "relative viability": 0.566
  },
  {
    "COMPOUND": "COCC1(CO)C(=O)C2CCN1CC2 (centres undefined) [PRIMA-1MET] + N=C(N)NC(=N)NCCc1ccccc1 [Phenformin] (partner 250 µM)",
    "relative viability": 0.58
  },
  {
    "COMPOUND": "COCC1(CO)C(=O)C2CCN1CC2 (centres undefined) [PRIMA-1MET] + CC(=O)c1c(C)c2cnc(Nc3ccc(N4CCNCC4)cn3)nc2n(C2CCCC2)c1=O [Palbociclib] (partner 0.5 µM)",
    "relative viability": 0.602
  }
]

Lab note: NCI-H2342 assay, enter relative viability for COCC1(CO)C(=O)C2CCN1CC2 (centres undefined) [PRIMA-1MET] + Cc1cc(Nc2cc(N3CCN(C)CC3)nc(Sc3ccc(NC(=O)C4CC4)cc3)n2)n[nH]1 [Tozasertib] (partner 0.1 µM) here
0.58
